Give measured Ratio for each item. Keep answers brief.
ASSAY SYSTEM: Peptidylglycine alpha-amidating monooxygenase (Rattus norvegicus) (UniProt P14925)
Sequence (P14925 whole entry): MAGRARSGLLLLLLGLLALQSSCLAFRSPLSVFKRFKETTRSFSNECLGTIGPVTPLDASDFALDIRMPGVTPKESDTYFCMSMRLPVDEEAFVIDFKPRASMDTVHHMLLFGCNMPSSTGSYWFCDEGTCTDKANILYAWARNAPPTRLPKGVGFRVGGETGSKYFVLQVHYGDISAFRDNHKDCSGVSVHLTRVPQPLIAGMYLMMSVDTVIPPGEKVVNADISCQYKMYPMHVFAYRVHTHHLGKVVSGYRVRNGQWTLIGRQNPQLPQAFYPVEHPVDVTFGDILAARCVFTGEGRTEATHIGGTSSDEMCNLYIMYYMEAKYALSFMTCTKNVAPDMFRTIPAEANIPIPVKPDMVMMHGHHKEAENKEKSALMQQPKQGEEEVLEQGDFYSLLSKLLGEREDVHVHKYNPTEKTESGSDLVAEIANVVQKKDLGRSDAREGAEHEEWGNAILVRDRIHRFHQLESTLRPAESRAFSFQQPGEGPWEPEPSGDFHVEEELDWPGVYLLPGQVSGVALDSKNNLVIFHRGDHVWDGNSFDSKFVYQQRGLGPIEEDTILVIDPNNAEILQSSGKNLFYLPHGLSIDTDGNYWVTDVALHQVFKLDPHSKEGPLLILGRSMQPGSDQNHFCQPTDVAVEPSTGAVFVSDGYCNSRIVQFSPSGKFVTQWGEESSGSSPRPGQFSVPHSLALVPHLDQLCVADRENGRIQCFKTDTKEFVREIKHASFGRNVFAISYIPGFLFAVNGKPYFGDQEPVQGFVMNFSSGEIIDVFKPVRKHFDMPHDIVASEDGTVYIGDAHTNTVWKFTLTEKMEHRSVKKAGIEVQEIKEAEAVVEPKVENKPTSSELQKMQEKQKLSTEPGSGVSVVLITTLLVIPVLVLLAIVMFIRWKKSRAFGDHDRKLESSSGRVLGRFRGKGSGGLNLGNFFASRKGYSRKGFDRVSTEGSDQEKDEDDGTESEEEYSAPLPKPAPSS
ASSAY NOTES: Ratio of Vm(app) to Km(app) for rat recombinant peptidylglycine alpha-amidating monooxygenase
The answer is to be given in ×10⁴ /M/s; state only the numeric part.

# return recorded Ratio for input O=C(O)CNC(=O)CNC(=O)c1ccc([N+](=O)[O-])cc1
7.6

# return recorded Ratio for input O=C(O)CNC(=O)OCc1ccccc1
1.5

# return recorded Ratio for input O=C(O)CNC(=O)CCCc1ccccc1
7

----------
Give measured Ratio for each item. Keep answers brief.
ASSAY SYSTEM: Peptidylglycine alpha-amidating monooxygenase (Rattus norvegicus) (UniProt P14925)
ASSAY NOTES: Ratio of Vm(app) to Km(app) for rat recombinant peptidylglycine alpha-amidating monooxygenase
The answer is to be given in ×10⁵ /M/s; state only the numeric part.

# return Ratio for O=C(O)CNC(=O)CCCCCc1ccccc1 , test system: Peptidylglycine alpha-amidating monooxygenase (Rattus norvegicus) (UniProt P14925)
2

# return Ratio for O=C(O)CNC(=S)Cc1ccccc1 , test system: Peptidylglycine alpha-amidating monooxygenase (Rattus norvegicus) (UniProt P14925)
1

// provenance: ChEMBL document CHEMBL1151692
